molecular target: D3 receptor (Homo sapiens (Human)); assay: Radioligand binding assay ([3H]-spiperone) on membranes of HEK293 EBNA cells expressing human D3 receptor; conditions: read-out: D3 Ki; human receptor in HEK293 EBNA cells; 0.5 nM [3H]-spiperone
Sequence (P35462 whole entry): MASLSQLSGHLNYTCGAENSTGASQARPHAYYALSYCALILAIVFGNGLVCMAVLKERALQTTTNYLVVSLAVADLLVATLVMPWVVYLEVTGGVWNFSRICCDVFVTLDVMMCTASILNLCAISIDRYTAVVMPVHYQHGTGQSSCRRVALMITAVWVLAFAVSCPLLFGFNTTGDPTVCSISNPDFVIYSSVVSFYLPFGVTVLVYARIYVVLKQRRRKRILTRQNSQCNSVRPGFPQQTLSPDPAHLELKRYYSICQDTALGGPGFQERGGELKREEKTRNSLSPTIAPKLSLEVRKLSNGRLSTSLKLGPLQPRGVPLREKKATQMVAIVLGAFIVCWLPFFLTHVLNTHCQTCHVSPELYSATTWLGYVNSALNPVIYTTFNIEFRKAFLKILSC
measured-endpoint: log10(Ki) (log10 of the value in nM)

[[record]]
molecule = "O=C(CC1(O)CCCCC1)N[C@H]1CC[C@H](CCN2CCC(c3cccc4c3OCO4)CC2)CC1 [Example 21]"
readout_value = 1.02

[[record]]
molecule = "CCCC(=O)N[C@H]1CC[C@H](CCN2CCC(c3cccc4c3OCO4)CC2)CC1 [Example 25]"
readout_value = 0.76

[[record]]
molecule = "O=S(=O)(N[C@H]1CC[C@H](CCN2CCC(c3cccc4c3OCO4)CC2)CC1)c1ccccc1 [Example 70]"
readout_value = 0.56

[[record]]
molecule = "O=C(N[C@H]1CC[C@H](CCN2CCC(c3cccc4c3OCO4)CC2)CC1)C1CCOC1 (stereo partly shown) [Example 47]"
readout_value = 0.88

[[record]]
molecule = "O=C(C[C@@H]1CCCOC1)N[C@H]1CC[C@H](CCN2CCC(c3cccc4c3OCO4)CC2)CC1 [Example 42]"
readout_value = 1.07

[[record]]
molecule = "CN(C)C(=O)N[C@H]1CC[C@H](CCN2CCC(c3cccc4c3OCO4)CC2)CC1 [Example 75]"
readout_value = 1.52

[[record]]
molecule = "CS(=O)(=O)N[C@H]1CC[C@H](CCN2CCC(c3cccc4c3OCO4)CC2)CC1 [Example 69]"
readout_value = 1.02

[[record]]
molecule = "CC(C)C(=O)N[C@H]1CC[C@H](CCN2CCC(c3cccc4c3OCO4)CC2)CC1 [Example 23]"
readout_value = 0.92

[[record]]
molecule = "O=S(=O)(N[C@H]1CC[C@H](CCN2CCC(c3cccc4c3OCO4)CC2)CC1)c1ccc(F)cc1 [Example 71]"
readout_value = 0.42

[[record]]
molecule = "O=C(CC1(O)CCC1)N[C@H]1CC[C@H](CCN2CCC(c3cccc4c3OCO4)CC2)CC1 [Example 45]"
readout_value = 0.81

[[record]]
molecule = "CC(C)(O)CC(=O)N[C@H]1CC[C@H](CCN2CCC(c3cccc4c3OCO4)CC2)CC1 [Example 35]"
readout_value = 0.77

[[record]]
molecule = "CN(C)S(=O)(=O)N[C@H]1CC[C@H](CCN2CCC(c3cccc4c3OCO4)CC2)CC1 [Example 78]"
readout_value = 1.06

[[record]]
molecule = "CCC(=O)N[C@H]1CC[C@H](CCN2CCC(c3cccc4c3OCO4)CC2)CC1 [Example 7]"
readout_value = 0.62

[[record]]
molecule = "O=C(CC1COC1)N[C@H]1CC[C@H](CCN2CCC(c3cccc4c3OCO4)CC2)CC1 [Example 29]"
readout_value = 0.72

[[record]]
molecule = "CC(=O)N[C@H]1CC[C@H](CCN2CCC(c3cccc4c3OCO4)CC2)CC1 [Example 1]"
readout_value = 0.70

[[record]]
molecule = "O=C(N[C@H]1CC[C@H](CCN2CCC(c3cccc4c3OCO4)CC2)CC1)[C@@H](O)C(F)(F)F [Example 39]"
readout_value = 1.30

